Tested on: Mycobacterium tuberculosis Erdman (autoluminescent)
protocol-description: AUC25, normalised area under dose response up to IC25 (three-drug combination) (fraction (0-1)); higher = more potent at low dose
study-conditions: in vitro model: acidic pH 5.7; time point: terminal (~4-5 doublings, model-specific)
reported-metric: AUC25
Give bare numbers.

Please review the following examples before continuing.
# compound, reported-metric, measured
records = [
    ("NNC(=O)c1ccncc1 [isoniazid] + COc1c(N2C[C@@H]3CCCN[C@@H]3C2)c(F)cc2c(=O)c(C(=O)O)cn(C3CC3)c12 [moxifloxacin] + CO[C@H]1/C=C/O[C@@]2(C)Oc3c(C)c(O)c4c(O)c(c(/C=N/N5CCN(C6CCCC6)CC5)c(O)c4c3C2=O)NC(=O)/C(C)=C\\C=C\\[C@H](C)[C@H](O)[C@@H](C)[C@@H](O)[C@@H](C)[C@H](OC(C)=O)[C@@H]1C [rifapentine]", "AUC25", 0.0472),
    ("CC[C@@H](CO)NCCN[C@@H](CC)CO [ethambutol] + CC(=O)NC[C@H]1CN(c2ccc(N3CCOCC3)c(F)c2)C(=O)O1 [linezolid] + O=[N+]([O-])c1cn2c(n1)OC[C@@H](OCc1ccc(OC(F)(F)F)cc1)C2 [pretomanid]", "AUC25", 0.0878),
    ("COc1nc2ccc(Br)cc2cc1[C@@H](c1ccccc1)[C@@](O)(CCN(C)C)c1cccc2ccccc12 [bedaquiline] + CC[C@@H](CO)NCCN[C@@H](CC)CO [ethambutol] + CO[C@H]1/C=C/O[C@@]2(C)Oc3c(C)c(O)c4c(O)c(c(/C=N/N5CCN(C6CCCC6)CC5)c(O)c4c3C2=O)NC(=O)/C(C)=C\\C=C\\[C@H](C)[C@H](O)[C@@H](C)[C@@H](O)[C@@H](C)[C@H](OC(C)=O)[C@@H]1C [rifapentine]", "AUC25", 0.0469),
]

Would you mind listing AUC25 for each of the following compounds?
1. COc1nc2ccc(Br)cc2cc1[C@@H](c1ccccc1)[C@@](O)(CCN(C)C)c1cccc2ccccc12 [bedaquiline] + CC(C)/N=c1\cc2n(-c3ccc(Cl)cc3)c3ccccc3nc-2cc1Nc1ccc(Cl)cc1 [clofazimine] + NC(=O)c1cnccn1 [pyrazinamide]
2. CC[C@@H](CO)NCCN[C@@H](CC)CO [ethambutol] + O=[N+]([O-])c1cn2c(n1)OC[C@@H](OCc1ccc(OC(F)(F)F)cc1)C2 [pretomanid] + NC(=O)c1cnccn1 [pyrazinamide]
3. CC[C@@H](CO)NCCN[C@@H](CC)CO [ethambutol] + O=[N+]([O-])c1cn2c(n1)OC[C@@H](OCc1ccc(OC(F)(F)F)cc1)C2 [pretomanid] + CO[C@H]1/C=C/O[C@@]2(C)Oc3c(C)c(O)c4c(O)c(c(/C=N/N5CCN(C)CC5)c(O)c4c3C2=O)NC(=O)/C(C)=C\C=C\[C@H](C)[C@H](O)[C@@H](C)[C@@H](O)[C@@H](C)[C@H](OC(C)=O)[C@@H]1C [rifampicin]
4. COc1nc2ccc(Br)cc2cc1[C@@H](c1ccccc1)[C@@](O)(CCN(C)C)c1cccc2ccccc12 [bedaquiline] + CC(C)/N=c1\cc2n(-c3ccc(Cl)cc3)c3ccccc3nc-2cc1Nc1ccc(Cl)cc1 [clofazimine] + CC[C@@H](CO)NCCN[C@@H](CC)CO [ethambutol]

[0.074, 0.091, 0.0422, 0.0687]

----------
Test system: Mycobacterium tuberculosis Erdman (autoluminescent)
protocol-description: FIC50 (Loewe) at 50% inhibition (log2); higher = more antagonistic
study-conditions: in vitro model: butyrate; time point: constant (~7 days, model-specific)
So I've got a bunch of compounds here, and I need their FIC50 values.

// below: answered compounds
# compound, FIC50
measured = [
    ("CC[C@@H](CO)NCCN[C@@H](CC)CO [ethambutol] + NC(=O)c1cnccn1 [pyrazinamide]", 0.466),
    ("COc1nc2ccc(Br)cc2cc1[C@@H](c1ccccc1)[C@@](O)(CCN(C)C)c1cccc2ccccc12 [bedaquiline] + CO[C@H]1/C=C/O[C@@]2(C)Oc3c(C)c(O)c4c(O)c(c(/C=N/N5CCN(C)CC5)c(O)c4c3C2=O)NC(=O)/C(C)=C\\C=C\\[C@H](C)[C@H](O)[C@@H](C)[C@@H](O)[C@@H](C)[C@H](OC(C)=O)[C@@H]1C [rifampicin]", 0.393),
    ("CC(=O)NC[C@H]1CN(c2ccc(N3CCOCC3)c(F)c2)C(=O)O1 [linezolid] + CO[C@H]1/C=C/O[C@@]2(C)Oc3c(C)c(O)c4c(O)c(c(/C=N/N5CCN(C6CCCC6)CC5)c(O)c4c3C2=O)NC(=O)/C(C)=C\\C=C\\[C@H](C)[C@H](O)[C@@H](C)[C@@H](O)[C@@H](C)[C@H](OC(C)=O)[C@@H]1C [rifapentine]", 0.227),
]

Quick batch: FIC50 for everything below.
1. NNC(=O)c1ccncc1 [isoniazid] + O=[N+]([O-])c1cn2c(n1)OC[C@@H](OCc1ccc(OC(F)(F)F)cc1)C2 [pretomanid]
2. CC(=O)NC[C@H]1CN(c2ccc(N3CCOCC3)c(F)c2)C(=O)O1 [linezolid] + CO[C@H]1/C=C/O[C@@]2(C)Oc3c(C)c(O)c4c(O)c(c(/C=N/N5CCN(C)CC5)c(O)c4c3C2=O)NC(=O)/C(C)=C\C=C\[C@H](C)[C@H](O)[C@@H](C)[C@@H](O)[C@@H](C)[C@H](OC(C)=O)[C@@H]1C [rifampicin]

1: 0.776; 2: 0.117

----------
System: Mycobacterium tuberculosis Erdman (autoluminescent)
protocol-description: total FIC90 (Loewe) at 90% inhibition, three-drug combination (log2); higher = more antagonistic
study-conditions: in vitro model: acidic pH 5.7; time point: terminal (~4-5 doublings, model-specific)
reported-metric: total FIC90
One number for each entry.

# compound, total FIC90
measured = [
    ("COc1nc2ccc(Br)cc2cc1[C@@H](c1ccccc1)[C@@](O)(CCN(C)C)c1cccc2ccccc12 [bedaquiline] + CC[C@@H](CO)NCCN[C@@H](CC)CO [ethambutol] + CC(=O)NC[C@H]1CN(c2ccc(N3CCOCC3)c(F)c2)C(=O)O1 [linezolid]", 0.711),
    ("NNC(=O)c1ccncc1 [isoniazid] + CC(=O)NC[C@H]1CN(c2ccc(N3CCOCC3)c(F)c2)C(=O)O1 [linezolid] + CO[C@H]1/C=C/O[C@@]2(C)Oc3c(C)c(O)c4c(O)c(c(/C=N/N5CCN(C)CC5)c(O)c4c3C2=O)NC(=O)/C(C)=C\\C=C\\[C@H](C)[C@H](O)[C@@H](C)[C@@H](O)[C@@H](C)[C@H](OC(C)=O)[C@@H]1C [rifampicin]", 0.335),
]

Could you share what total FIC90 was measured for NNC(=O)c1ccncc1 [isoniazid] + NC(=O)c1cnccn1 [pyrazinamide] + CO[C@H]1/C=C/O[C@@]2(C)Oc3c(C)c(O)c4c(O)c(c(/C=N/N5CCN(C)CC5)c(O)c4c3C2=O)NC(=O)/C(C)=C\C=C\[C@H](C)[C@H](O)[C@@H](C)[C@@H](O)[C@@H](C)[C@H](OC(C)=O)[C@@H]1C [rifampicin] , tested on Mycobacterium tuberculosis Erdman (autoluminescent)?
-1.75

----------
Test system: Mycobacterium tuberculosis Erdman (autoluminescent)
protocol-description: GRinf, maximum normalised growth rate inhibition (three-drug combination) (unitless (-1 to 1)); higher = less effect (negative = killing)
study-conditions: in vitro model: valerate; time point: terminal (~4-5 doublings, model-specific)
Could you please report measured GRinf for the items listed next?
Answers are plain numbers.

For every item below, please supply its GRinf.
1. CC[C@@H](CO)NCCN[C@@H](CC)CO [ethambutol] + NNC(=O)c1ccncc1 [isoniazid] + O=[N+]([O-])c1cn2c(n1)OC[C@@H](OCc1ccc(OC(F)(F)F)cc1)C2 [pretomanid]
2. CC(=O)NC[C@H]1CN(c2ccc(N3CCOCC3)c(F)c2)C(=O)O1 [linezolid] + COc1c(N2C[C@@H]3CCCN[C@@H]3C2)c(F)cc2c(=O)c(C(=O)O)cn(C3CC3)c12 [moxifloxacin] + O=[N+]([O-])c1cn2c(n1)OC[C@@H](OCc1ccc(OC(F)(F)F)cc1)C2 [pretomanid]
3. COc1nc2ccc(Br)cc2cc1[C@@H](c1ccccc1)[C@@](O)(CCN(C)C)c1cccc2ccccc12 [bedaquiline] + COc1c(N2C[C@@H]3CCCN[C@@H]3C2)c(F)cc2c(=O)c(C(=O)O)cn(C3CC3)c12 [moxifloxacin] + CO[C@H]1/C=C/O[C@@]2(C)Oc3c(C)c(O)c4c(O)c(c(/C=N/N5CCN(C6CCCC6)CC5)c(O)c4c3C2=O)NC(=O)/C(C)=C\C=C\[C@H](C)[C@H](O)[C@@H](C)[C@@H](O)[C@@H](C)[C@H](OC(C)=O)[C@@H]1C [rifapentine]
4. CC[C@@H](CO)NCCN[C@@H](CC)CO [ethambutol] + CC(=O)NC[C@H]1CN(c2ccc(N3CCOCC3)c(F)c2)C(=O)O1 [linezolid] + O=[N+]([O-])c1cn2c(n1)OC[C@@H](OCc1ccc(OC(F)(F)F)cc1)C2 [pretomanid]
5. COc1nc2ccc(Br)cc2cc1[C@@H](c1ccccc1)[C@@](O)(CCN(C)C)c1cccc2ccccc12 [bedaquiline] + NNC(=O)c1ccncc1 [isoniazid] + NC(=O)c1cnccn1 [pyrazinamide]
6. COc1nc2ccc(Br)cc2cc1[C@@H](c1ccccc1)[C@@](O)(CCN(C)C)c1cccc2ccccc12 [bedaquiline] + CC(C)/N=c1\cc2n(-c3ccc(Cl)cc3)c3ccccc3nc-2cc1Nc1ccc(Cl)cc1 [clofazimine] + CC(=O)NC[C@H]1CN(c2ccc(N3CCOCC3)c(F)c2)C(=O)O1 [linezolid]
7. CC[C@@H](CO)NCCN[C@@H](CC)CO [ethambutol] + COc1c(N2C[C@@H]3CCCN[C@@H]3C2)c(F)cc2c(=O)c(C(=O)O)cn(C3CC3)c12 [moxifloxacin] + CO[C@H]1/C=C/O[C@@]2(C)Oc3c(C)c(O)c4c(O)c(c(/C=N/N5CCN(C)CC5)c(O)c4c3C2=O)NC(=O)/C(C)=C\C=C\[C@H](C)[C@H](O)[C@@H](C)[C@@H](O)[C@@H](C)[C@H](OC(C)=O)[C@@H]1C [rifampicin]

1: 0.0915; 2: -0.0505; 3: -0.0711; 4: -0.0362; 5: -0.0326; 6: -0.0541; 7: 0.0403
